Item-by-item account of GI50
system: MALME-3M melanoma; experiment: NCI tumour cell line growth inhibition, 48 h

Examples from the recorded data:
INSERT INTO results (molecule, observed_result) VALUES
  ('O=C1c2ccccc2C(=O)c2c1c(NCCNCCO)c1cc[nH]c1c2NCCNCCO', '1.8 µM'),
  ('CC(=O)[CH-]C(=O)c1ccccc1.CC(=O)[CH-]C(=O)c1ccccc1.[O-]c1ccc(O)cc1.[O-]c1ccc(O)cc1.[Ti+4]', '18.1 µM'),
  ('C=C(C)[C@@H]1CC[C@]2(C)[C@H](CC=C3[C@@H]4CC(C)(C)CC[C@]4(C(=O)OC)CC[C@]32C)[C@@]1(C)CC/C(N)=N/O', '1.69 µM');

query: Which GI50 reading was recorded for the molecule Cc1ccc2nc(NC(=O)CSC(=S)N3CCN(Cc4ccccc4)CC3)sc2c1 ?
result: > 100 µM

query: GET /values?readout=GI50&item= COc1ccc(-n2nc(C)c3c(Nc4ccc(NC(=O)Nc5cc(C(F)(F)F)ccc5F)cc4)ncnc32)cc1
result: 1.76 µM

query: What GI50 value was documented for this molecule, c1ccc(CN2CCC3(CC2)ONC2=NCCN23)cc1 ?
result: > 100 µM

query: I am curious: what GI50 value has been reported for CCCCCn1ncc(-c2c(O)c(O)cc3c(O)c(-c4c(C)cc5c(-c6cnn(CCCCC)n6)c(O)c(O)cc5c4O)c(C)cc23)n1 ?
result: 0.138 µM

query: Entry under review: O=C(Oc1ccccc1Cl)c1cccnc1Nc1ccnc(C(F)(F)F)c1 . Reported GI50?
result: 8.29 µM

query: Which GI50 value belongs to CC(=O)OC1CC(C)c2c1ncnc2N1CCN(C(=O)OC(C)(C)C)CC1 (centres undefined) ?
result: 35.5 µM

* * *

tested on: SF-268 CNS; test: NCI tumour cell line growth inhibition, 48 h; in the data active = GI50 below about 0.43 µM; inactive = the rest
Classes to choose from: active, inactive

INSERT INTO measurements (structure_as_smiles, qualitative_label) VALUES
  ('N#C/C(=C/c1cccs1)c1cccs1', 'inactive'),
  ('CCCCCn1ncc(-c2c(O)c(O)cc3c(O)c(-c4c(C)cc5c(-c6cnn(CCCCC)n6)c(O)c(O)cc5c4O)c(C)cc23)n1', 'active'),
  ('CN1CCN(c2ccc3nc(-c4ccc5nc(-c6ccc(C(F)(F)F)cc6)[nH]c5c4)[nH]c3c2)CC1', 'inactive');

query: // param item: CCOc1ccccc1N=C(NC(=O)CC)SC ; yields the recorded call
result: inactive

query: Look up the recorded call for CC(C)(C)c1cc2c(OP(c3ccccc3)c3ccccc3)c(c1)Cc1cc(C(C)(C)C)cc(c1OP(c1ccccc1)c1ccccc1)Cc1cc(C(C)(C)C)cc(c1OP(c1ccccc1)c1ccccc1)Cc1cc(C(C)(C)C)cc(c1OP(c1ccccc1)c1ccccc1)C2 in this test.
result: inactive

query: Called result for CCC(=O)[O-].CCC(=O)[O-].N.N.N.N.[Co+3].[O-][Cl+3]([O-])([O-])[O-]
result: inactive

query: For O=C1c2ccccc2C(=O)c2c1c(NCCNCCO)c1cc[nH]c1c2NCCNCCO , which call appears in the assay record?
result: inactive

query: For CC(C)NCCCNC1=C(Cl)C(=O)c2ccccc2C1=O , which call appears in the assay record?
result: inactive

query: Hello, I am checking results. What call was entered for COc1ccc(/C=C2/CCOC2=O)cc1 ?
result: inactive

query: Any idea what this test logged for O=c1cc(-c2ccccc2)oc2cc(OCc3cn(Cc4ccc(F)cc4)nn3)cc(O)c12 ?
result: inactive

query: What did this assay record as the result for C=C(C)[C@@H]1CC[C@]2(c3ncc(C)o3)CC[C@]3(C)[C@H](CC[C@@H]4[C@@](C)(CCC#N)[C@H](C(=C)C)CC[C@]43C)[C@@H]12 ?
result: inactive

* * *

tested on: HCC-2998 colon; test: NCI tumour cell line growth inhibition, 48 h; in the data active means GI50 below about 0.43 µM; inactive means the rest
Form entry, call: pick from active, inactive

query: Please state the recorded outcome for this compound: CC(C)(C)c1ccc(NC(=O)c2cc(=O)c3ccccc3[nH]2)c(C(C)(C)C)c1O
result: inactive

query: Test call, this compound: Cc1cc2cc(Oc3ccnc(Nc4cccc(CS(=O)(=O)NCCN(C)C)c4)n3)ccc2[nH]1
result: inactive

query: Tell me the assay call for CCC(=O)[O-].CCC(=O)[O-].N.N.N.N.[Co+3].[O-][Cl+3]([O-])([O-])[O-] please.
result: inactive

query: Please let me know the test result on file for CCOc1ccccc1N=C(NC(=O)CC)SC .
result: inactive

query: What was the test verdict on O=c1cc(-c2ccccc2)oc2cc(OCc3cn(Cc4ccc(F)cc4)nn3)cc(O)c12 ?
result: inactive

query: Dear colleague, could you share the recorded outcome for Cn1c(-c2c(N)n(Cc3ccc(Cl)cc3)c3nc(C#N)c(C#N)nc23)nc2ccccc21 when you have a moment?
result: inactive

query: What is the recorded call for this compound in the test? CN([N-]C(=O)CC(=O)[N-]N(C)C(=S)c1ccccc1)C(=S)c1ccccc1.[Cu+2]
result: active

* * *

test system: OVCAR-8 ovarian; experiment: NCI tumour cell line growth inhibition, 48 h; in the data active = GI50 below about 0.43 µM; inactive = the rest
Assign a class; possible classes are YES (active), NO (inactive)

INSERT INTO results (molecule, qualitative_label) VALUES
  ('CC(=O)c1ccc(NCn2nc(-c3ccccc3O)oc2=S)cc1', 'NO'),
  ('C=C(C)[C@@H]1CC[C@]2(c3ncc(C)o3)CC[C@]3(C)[C@H](CC[C@@H]4[C@@](C)(CCC#N)[C@H](C(=C)C)CC[C@]43C)[C@@H]12', 'NO');

query: Kindly provide the recorded test outcome for the following molecule: CC(C)(C)c1ccc(NC(=O)c2cc(=O)c3ccccc3[nH]2)c(C(C)(C)C)c1O
result: NO

query: // outcome(item) with item = CCCCCCCCOC(=O)c1cc(O)c(O)c(O)c1
result: NO

query: Recorded call for CN1CCN(c2ccc3nc(-c4ccc5nc(-c6ccc(C(F)(F)F)cc6)[nH]c5c4)[nH]c3c2)CC1 ?
result: NO

* * *

tested on: IGROV1 ovarian; assay: NCI tumour cell line growth inhibition, 48 h
Parameter: TGI

In the examples that follow, each entry is paired with its recorded TGI.
INSERT INTO measurements (molecule, observed_result) VALUES
  ('Cc1occc1C(=S)Nc1ccc(Cl)c(C(=O)OCC2CC2)c1', '> 100 µM'),
  ('CC(=O)c1ccc(NCn2nc(-c3ccccc3O)oc2=S)cc1', '> 100 µM'),
  ('CCCCNC(=O)C1=C(C)NC(C)=C(C(=O)NCCCC)C1', '> 100 µM'),
  ('COc1cc(/C=C\c2cc(/C=C\c3ccc(O)c(OC)c3)n(C(=O)Nc3ccc(C(F)(F)F)cc3)n2)ccc1O', '11.6 µM'),
  ('CCCCn1c(=O)c(/C=C/C(=O)/C=C/c2ccc(O)c(OC)c2)cc2ccc(Cl)cc21', '4.1 µM'),
  ('CNC1=C(Br)C(=O)C2=C(C1=O)C1C3=C(C(=O)C=CC3=O)C2c2ccccc21 (centres undefined)', '18 µM'),
  ('O=[N+]([O-])/C(Cl)=C(\Sc1ccccc1)C(Cl)=C(Cl)Cl', '2.62 µM'),
  ('COc1cc2c(C#N)n3c(c2cc1OC)C(=O)C(c1ccccc1)Oc1ccccc1-3 (centres undefined)', '> 100 µM');

Now examine the next entry.
query: Look up TGI with IGROV1 ovarian for this molecule: CCOC(=O)NC(=O)c1cn(-c2ccc(CCOC(=O)CCCCCCCCC(=O)OCCc3ccc(-n4cc(C(=O)NC(=O)OCC)c(=O)[nH]c4=O)cc3)cc2)c(=O)[nH]c1=O
result: > 100 µM

* * *

system: U251 CNS; experiment: NCI tumour cell line growth inhibition, 48 h
Parameter: TGI

query: Any idea what TGI was measured for S=C(S)NCCCn1ccnc1 ?
result: > 100 µM

query: Which value of TGI has been reported for COc1cc(/C=C\c2cc(/C=C\c3ccc(O)c(OC)c3)n(C(=O)Nc3ccc(C(F)(F)F)cc3)n2)ccc1O in the records?
result: 6.86 µM

query: Which TGI is listed for O=C1c2ccccc2C(=O)c2c1c(NCCNCCO)c1cc[nH]c1c2NCCNCCO ?
result: 19.7 µM

query: What measured TGI goes with CC1(C)C2CCC1(C)C(NC(=O)CCN1CCOCC1)C2 (stereo not given) ?
result: > 100 µM

query: Dear colleague, I am looking for the recorded TGI of the following compound: COc1cc2c(C#N)n3c(c2cc1OC)C(=O)C(c1ccccc1)Oc1ccccc1-3 (stereo not given)
result: > 100 µM

query: For CNC(=O)OC(C)CN1c2ccccc2Sc2ccccc21 (stereo not given) , what is its reported TGI?
result: > 100 µM

* * *

system: MCF7 breast; assay: NCI tumour cell line growth inhibition, 48 h
Parameter: TGI

Worked examples follow.
INSERT INTO results (molecule, system_under_test, observed_result) VALUES
  ('COc1cc([N+](=O)[O-])c(S(=O)(=O)O)cc1-n1nc(-c2ccccc2)n[n+]1-c1cc(S(=O)(=O)[O-])c([N+](=O)[O-])cc1OC', 'MCF7 breast', '> 100 µM'),
  ('CC(=O)NC1C(OCc2ccccc2)OC(CO)C(O)C1OCC(=O)NC(C)C(=O)NC(CCC(=O)OCCNC(=O)c1cccc2cc3ccccc3nc12)C(N)=O (stereo not drawn)', 'MCF7 breast', '> 100 µM'),
  ('N#C/C(=C/c1cccs1)c1cccs1', 'MCF7 breast', '> 100 µM');

query: Suppose we examine the molecule CCN(CCc1ccc(F)cc1)c1ccc(CO)c(Cl)c1 ; what TGI value has been reported?
result: 19.9 µM

query: What measured TGI goes with O=C(/C=C/c1ccccc1)c1ccc(O)c(CN2CCN(c3cc4c(cc3F)c(=O)c(C(=O)O)cn4C3CC3)CC2)c1 ?
result: > 100 µM

query: # query: TGI of entry NC(=O)c1nnc2cc(F)c(F)cc2c1N
result: > 100 µM

query: Given C/C=C1/CN2CC[C@@H]3c4ccccc4N4[C@H](C(=O)OC)[C@H]1C[C@H]2[C@]34/C=C/C1=COC[C@@H]2[C@H]1C[C@H]1c3c(c4ccccc4n3C)C[C@@H]2N1C , state its recorded TGI.
result: 8.67 µM

query: For COC(=O)C1=C(C(=O)OC)C2(/N=C(\Nc3ccccc3)c3ccccc3)N(c3ccc(OC)cc3)CC(c3ccccc3)N2O1 (stereo not drawn) , what is its reported TGI?
result: > 100 µM
